# study.target: T1, Human IL-18BP (isoform A) (human, UniProt O95998 31-194, biotinylated (site not stated))
# T1 construct: also called decoy receptor
# T1 sequence: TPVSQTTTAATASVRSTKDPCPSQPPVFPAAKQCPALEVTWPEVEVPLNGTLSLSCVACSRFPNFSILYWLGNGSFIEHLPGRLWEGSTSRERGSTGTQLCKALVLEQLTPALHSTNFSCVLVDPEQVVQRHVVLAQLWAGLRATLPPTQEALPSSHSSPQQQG
# procedure.text: SPR, Biacore 8K, 37 C, biotinylated target on SA chip, single-cycle kinetics
Examples of binders with documented kon follow.
measure: kon (M⁻¹ s⁻¹)

* Human IL-18 Y37C/S91C (ligand, Made in mammalian cells) CFGKLESKLSVIRNLNDQVLFIDQGNRPLFEDMTDSDSRDNAPRTIFIISMYKDCQPRGMAVTISVKSEKISTLSSENKIISFKEMNPPDNIKDTKSDIIFFQRSVPGHDNKMQFESSSYEGYFLASEKERDLFKLILKKEDELGDRSIMFTVQNED | 2.6e+06
* Human IL-18 N50C/L174C (ligand, Made in mammalian cells) YFGKLESKLSVIRCLNDQVLFIDQGNRPLFEDMTDSDSRDNAPRTIFIISMYKDSQPRGMAVTISVKSEKISTLSCENKIISFKEMNPPDNIKDTKSDIIFFQRSVPGHDNKMQFESSSYEGYFLACEKERDLFKLICKKEDELGDRSIMFTVQNED | 3.6e+06
* Human IL-18 L45C/E192C (ligand, Made in mammalian cells) YFGKLESKCSVIRNLNDQVLFIDQGNRPLFEDMTDSDSRDNAPRTIFIISMYKDSQPRGMAVTISVKSEKISTLSSENKIISFKEMNPPDNIKDTKSDIIFFQRSVPGHDNKMQFESSSYEGYFLASEKERDLFKLILKKEDELGDRSIMFTVQNCD | 2.1e+06
